Data credit: patent US6964975B2

biological target: human EDG-2 (Homo sapiens, UniProt Q92633); construct: cDNA of the cloned human EDG-2 was introduced into pEFneo, which is an animal expression vector; assay: Inhibitory activity on LPA-induced elevation of intracellular Ca2+ level; conditions: 50% inhibition of elevation of intracellular Ca2+ level by LPA, human EDG-2/HepG2 cells, fura-2
Sequence (Q92633 whole entry): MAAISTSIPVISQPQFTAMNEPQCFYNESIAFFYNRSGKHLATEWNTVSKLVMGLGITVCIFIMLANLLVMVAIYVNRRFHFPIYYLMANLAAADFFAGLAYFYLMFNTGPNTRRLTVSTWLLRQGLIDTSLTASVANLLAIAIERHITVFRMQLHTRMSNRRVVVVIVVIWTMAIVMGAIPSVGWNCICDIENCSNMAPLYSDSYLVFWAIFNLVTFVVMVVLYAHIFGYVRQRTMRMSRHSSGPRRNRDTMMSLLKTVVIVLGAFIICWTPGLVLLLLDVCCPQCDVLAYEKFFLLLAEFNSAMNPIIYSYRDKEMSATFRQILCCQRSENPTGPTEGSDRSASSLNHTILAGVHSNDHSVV
pIC50: −log10 of the molar value.
outcome measure: pIC50

compound="COCc1cccc(-c2onc(C)c2NC(=O)OC(C)c2ccccc2Cl)c1 (stereo not shown)" reported_result="5.00 to 5.52"
compound="CC(=O)NCCSCc1ccc(-c2onc(C)c2NC(=O)OC(C)c2ccccc2Cl)cc1 (stereo not shown)" reported_result="5.00 to 5.52"
compound="Cc1noc(-c2ccc(C#N)cc2)c1NC(=O)OC(C)c1ccccc1 (stereo not shown)" reported_result="5.00 to 5.52"
compound="Cc1noc(-c2ccc(CSCC(=O)NCc3ccco3)cc2)c1NC(=O)OC(C)c1ccccc1Cl (stereo not shown)" reported_result=5.00

---

biological target: human EDG-2 (Homo sapiens); construct: cDNA of the cloned human EDG-2 was introduced into pEFneo, which is an animal expression vector; experiment: Inhibitory activity on LPA-induced elevation of intracellular Ca2+ level; settings: 50% inhibition of elevation of intracellular Ca2+ level by LPA, human EDG-2/HepG2 cells, fura-2
outcome measure: IC50

molecule="Cc1noc(-c2ccc(CSCCC(=O)O)cc2)c1NC(=O)OC(C)c1ccccc1Cl (stereo not drawn)" tgt="human EDG-2 (Homo sapiens)" outcome_measure=IC50 reported_result="3 to 10 µM"
molecule="Cc1onc(-c2ccccc2)c1NC(=O)OC(C)c1ccccc1F (stereo not drawn)" tgt="human EDG-2 (Homo sapiens)" outcome_measure=IC50 reported_result="3 to 10 µM"
molecule="Cc1noc(-c2cccc(F)c2)c1NC(=O)OC(C)c1ccccc1Cl (stereo not drawn)" tgt="human EDG-2 (Homo sapiens)" outcome_measure=IC50 reported_result="3 to 10 µM"
molecule="Cc1noc(-c2ccc(CNCc3ccco3)cc2)c1NC(=O)OC(C)c1ccccc1Cl (stereo not drawn) [Compound 93]" tgt="human EDG-2 (Homo sapiens)" outcome_measure=IC50 reported_result="3 to 10 µM"
molecule="Cc1noc(-c2ccc(CSCCC(=O)O)cc2)c1NC(=O)OC(C)c1ccccc1F (stereo not drawn)" tgt="human EDG-2 (Homo sapiens)" outcome_measure=IC50 reported_result="3 µM"
molecule="Cc1noc(-c2ccc(F)cc2)c1NC(=O)OC(C)c1ccccc1Cl (stereo not drawn)" tgt="human EDG-2 (Homo sapiens)" outcome_measure=IC50 reported_result="3 to 10 µM"
molecule="Cc1onc(-c2ccc(OC(F)(F)F)cc2)c1NC(=O)OC(C)c1ccccc1Cl (stereo not drawn)" tgt="human EDG-2 (Homo sapiens)" outcome_measure=IC50 reported_result="10 to 30 µM"
molecule="Cc1noc(-c2ccc(C#N)cc2)c1NC(=O)OC(C)c1ccccc1Cl (stereo not drawn)" tgt="human EDG-2 (Homo sapiens)" outcome_measure=IC50 reported_result="1 µM"
molecule="C=CCSCc1ccc(-c2onc(C)c2NC(=O)OC(C)c2ccccc2Cl)cc1 (stereo not drawn)" tgt="human EDG-2 (Homo sapiens)" outcome_measure=IC50 reported_result="3 to 10 µM"

---

Listing of recorded pIC50 by entry.
biological target: human EDG-2 (Homo sapiens); construct: cDNA of the cloned human EDG-2 was introduced into pEFneo, which is an animal expression vector; assay: Inhibitory activity on LPA-induced elevation of intracellular Ca2+ level; settings: 50% inhibition of elevation of intracellular Ca2+ level by LPA, human EDG-2/HepG2 cells, fura-2
pIC50: −log10 of the molar value.
outcome measure: pIC50

compound="Cc1noc(-c2ccoc2)c1NC(=O)OC(C)c1ccccc1Cl (stereo not drawn)" outcome_measure=pIC50 reported_result="5.00 to 5.52"
compound="Cc1noc(-c2ccc(CSc3nnnn3C)cc2)c1NC(=O)OC(C)c1ccccc1Cl (stereo not drawn)" outcome_measure=pIC50 reported_result="5.00 to 5.52"
compound=Cc1ccc(-c2onc(C)c2NC(=O)O[C@H](C)c2ccccc2Br)cc1 outcome_measure=pIC50 reported_result="5.00 to 5.52"
compound="CCOC(=O)COCc1ccc(-c2onc(C)c2NC(=O)OC(C)c2ccccc2Cl)cc1 (stereo not drawn)" outcome_measure=pIC50 reported_result="5.00 to 5.52"
compound="Cc1noc(-c2ccc(COCc3ccc(F)cc3)cc2)c1NC(=O)OC(C)c1ccccc1Cl (stereo not drawn)" outcome_measure=pIC50 reported_result="4.52 to 5.00"
compound="Cc1cccc(-c2onc(C)c2NC(=O)OC(C)c2ccccc2Cl)c1 (stereo not drawn)" outcome_measure=pIC50 reported_result="4.52 to 5.00"
compound="Cc1onc(-c2ccc(F)cc2)c1NC(=O)OC(C)c1ccccc1Cl (stereo not drawn)" outcome_measure=pIC50 reported_result="5.00 to 5.52"
compound="Cc1noc(-c2ccccc2F)c1NC(=O)OC(C)c1ccccc1Cl (stereo not drawn)" outcome_measure=pIC50 reported_result="5.00 to 5.52"
compound="Cc1noc(-c2cccs2)c1NC(=O)OC(C)c1ccccc1Cl (stereo not drawn)" outcome_measure=pIC50 reported_result=5.52
compound="Cc1ccc(-c2noc(C)c2NC(=O)OC(C)c2ccccc2Cl)cc1 (stereo not drawn)" outcome_measure=pIC50 reported_result="4.52 to 5.00"
compound="Cc1noc(-c2ccc(CSCCS(=O)(=O)O)cc2)c1NC(=O)OC(C)c1ccccc1Cl (stereo not drawn)" outcome_measure=pIC50 reported_result="5.00 to 5.52"
compound="CCOC(=O)CSCc1cccc(-c2onc(C)c2NC(=O)OC(C)c2ccccc2Cl)c1 (stereo not drawn)" outcome_measure=pIC50 reported_result="5.00 to 5.52"
compound=Cc1onc(-c2ccccc2)c1NC(=O)O[C@H](C)c1ccccc1Cl outcome_measure=pIC50 reported_result=5.52
compound="Cc1noc(-c2cccc(Cl)c2)c1NC(=O)OC(C)c1ccccc1Cl (stereo not drawn)" outcome_measure=pIC50 reported_result=5.00
compound="Cc1noc(-c2ccc(CCl)cc2)c1NC(=O)OC(c1ccccc1)C(F)(F)F (stereo not drawn)" outcome_measure=pIC50 reported_result="5.00 to 5.52"
compound="COC(=O)CCSCc1ccc(-c2onc(C)c2NC(=O)OC(C)c2ccccc2Cl)cc1 (stereo not drawn)" outcome_measure=pIC50 reported_result="5.52 to 6.00"
compound="Cc1noc(-c2ccccc2Br)c1NC(=O)OC(C)c1ccccc1Cl (stereo not drawn)" outcome_measure=pIC50 reported_result="4.52 to 5.00"
compound="Cc1noc(-c2ccnc(Cl)c2)c1NC(=O)OC(C)c1ccccc1Cl (stereo not drawn)" outcome_measure=pIC50 reported_result=5.52
